Parameter: excess molar enthalpy. Scope: all listed entries.
assay: excess molar enthalpy (molar enthalpy of mixing); xn = mol fraction of the nth substance listed; conditions: 298.15 K; 101 kPa; Liquid; Flow calorimetry; x2 = 0.75
MEASURED_QUANTITY: excess molar enthalpy (kcal/mol)

COMPOUND | UNIT | TEST_RESULT
CCCCCC(C)=O [2-heptanone] + C1CCOCC1 | kcal/mol | 0.0134
CCCC(C)=O [pentan-2-one] + C1CCOCC1 | kcal/mol | 0.0197
O=C1CCCC1 [cyclopentanone] + C1CCOCC1 | kcal/mol | 0.0306
O=C1CCCCC1 [cyclohexanone] + C1CCOCC1 | kcal/mol | 0.0184
